Target: UniProt:P17706
Sequence (P17706 whole entry): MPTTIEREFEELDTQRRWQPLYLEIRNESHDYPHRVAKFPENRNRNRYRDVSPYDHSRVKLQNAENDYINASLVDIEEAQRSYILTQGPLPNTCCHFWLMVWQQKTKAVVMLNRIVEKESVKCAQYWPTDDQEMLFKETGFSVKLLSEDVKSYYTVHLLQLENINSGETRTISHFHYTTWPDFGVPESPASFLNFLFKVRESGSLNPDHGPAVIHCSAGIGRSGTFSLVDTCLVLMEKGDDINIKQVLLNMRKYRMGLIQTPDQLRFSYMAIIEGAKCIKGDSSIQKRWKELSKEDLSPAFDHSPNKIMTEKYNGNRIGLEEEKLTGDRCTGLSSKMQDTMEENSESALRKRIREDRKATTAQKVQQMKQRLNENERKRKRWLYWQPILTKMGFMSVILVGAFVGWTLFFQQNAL
Listing of entries alongside the reported pIC50.
Just so you know, pIC50 here is -log10 of the concentration in molar units; reply with that number alone.

# count of solved cases: 3
O=S(=O)(Nc1ccc2oc(-c3ccccc3)nc2c1)c1ccccc1F
4.16
O=[N+]([O-])c1cc(S(=O)(=O)Nc2ccc(-c3nc4ccccc4o3)cc2)ccc1Cl
4.21
O=S(=O)(Nc1ccc(-c2nc3cc(NS(=O)(=O)c4ccc(C(F)(F)F)cc4)ccc3o2)cc1)c1ccc(C(F)(F)F)cc1
4.89

## Input Look up pIC50 for this molecule: COc1ccc(S(=O)(=O)Nc2ccc(-c3nc4cc(NS(=O)(=O)c5ccc(Cl)s5)ccc4o3)cc2)cc1
## Output 4.80

## Input I would be grateful if you could share the reported pIC50 for O=S(=O)(Nc1ccc2oc(-c3ccccc3)nc2c1)c1cccc(C(F)(F)F)c1 .
## Output 4.12

---

Target: Phosphotyrosine protein phosphatase (Mycobacterium tuberculosis)
Sequence (A0A045ISB3 whole entry): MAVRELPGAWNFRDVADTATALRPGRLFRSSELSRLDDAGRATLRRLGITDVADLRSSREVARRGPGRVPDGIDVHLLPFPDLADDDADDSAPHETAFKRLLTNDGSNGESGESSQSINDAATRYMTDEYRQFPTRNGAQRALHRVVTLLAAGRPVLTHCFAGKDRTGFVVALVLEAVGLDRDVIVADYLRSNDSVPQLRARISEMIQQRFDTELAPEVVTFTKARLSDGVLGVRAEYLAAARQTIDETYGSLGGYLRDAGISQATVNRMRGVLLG
Values of IC50 strictly less than 20 µM map to fulfilled, and values of at least 20 µM map to not fulfilled.

COc1ccc(Cl)cc1S(=O)(=O)Nc1ccc(-c2nc3cc(NS(=O)(=O)c4ccc(Cl)s4)ccc3o2)cc1
fulfilled
O=c1ccc2cc(S(=O)(=O)Nc3ccc(-c4nc5cc(NS(=O)(=O)c6ccc(Cl)s6)ccc5o4)cc3)ccc2o1
fulfilled
COc1ccc(S(=O)(=O)Nc2ccc(-c3nc4cc(NS(=O)(=O)c5ccc(OC)cc5)ccc4o3)cc2)cc1
fulfilled

## Input Identify whether the compound O=S(=O)(Nc1ccc(-c2nc3ccccc3o2)cc1)c1cccs1 records IC50 below 20 µM.
## Output not fulfilled

## Input IC50 under 20 µM? Item: COC(=O)c1ccccc1S(=O)(=O)Nc1ccc(-c2nc3cc(NS(=O)(=O)c4ccccc4C(=O)OC)ccc3o2)cc1
## Output fulfilled

## Input Is the reported IC50 for O=S(=O)(Nc1ccc(-c2nc3cc(NS(=O)(=O)c4ccccc4F)ccc3o2)cc1)c1ccccc1F strictly below 20 µM?
## Output fulfilled

## Input In plain terms, does O=S(=O)(Nc1ccc2oc(-c3ccc(NS(=O)(=O)c4ccc(Cl)s4)cc3)nc2c1)c1cccs1 come in under 20 µM for IC50?
## Output fulfilled

## Input Does the reported IC50 of O=S(=O)(Nc1ccc2oc(-c3ccccc3)nc2c1)c1cccc(O)c1 stay below 20 µM?
## Output not fulfilled

---

Target: Phosphotyrosine protein phosphatase (Mycobacterium tuberculosis)
Field: label. Allowed values: 1 (IC50 < 10 µM) or -1 (IC50 >= 10 µM).

These solved cases illustrate the format of a correct answer.
O=S(=O)(Nc1ccc(-c2nc3cc(NS(=O)(=O)c4ccc(Cl)s4)ccc3o2)cc1)c1ccc(F)c(C(F)(F)F)c1
1
O=S(=O)(Nc1ccc2oc(-c3ccc(NS(=O)(=O)c4ccc(Cl)s4)cc3)nc2c1)c1cccc(C(F)(F)F)c1
1
O=S(=O)(Nc1ccc(-c2nc3ccccc3o2)cc1)c1ccc(O)cc1
-1
CCc1ccc(S(=O)(=O)Nc2ccc(-c3nc4ccccc4o3)cc2)cc1
-1
O=[N+]([O-])c1ccc(S(=O)(=O)Nc2ccc(-c3nc4cc(NS(=O)(=O)c5ccc([N+](=O)[O-])cc5)ccc4o3)cc2)cc1
1

## Input Given the entry COc1ccc(S(=O)(=O)Nc2ccc3oc(-c4ccc(NS(=O)(=O)c5ccc(Cl)s5)cc4)nc3c2)cc1 , would its reported IC50 be below 10 µM?
## Output 1

## Input Determine whether this compound shows IC50 lower than 10 µM (ties excluded): O=S(=O)(Nc1ccc2oc(-c3ccc(NS(=O)(=O)c4cccc5ccccc45)cc3)nc2c1)c1ccc(Cl)s1
## Output 1

## Input Criterion: IC50 strictly below 10 µM. Is it met by C=Cc1ccc(S(=O)(=O)Nc2ccc(-c3nc4ccccc4o3)cc2)cc1 ?
## Output -1

---

Assay read-out pIC50; system under study: Phosphotyrosine protein phosphatase (Mycobacterium tuberculosis).
Lab note: report pIC50 as minus log10 of the concentration in molar units, number only.

These solved cases illustrate the format of a correct answer.
O=S(=O)(Nc1ccc(-c2nc3cc(NS(=O)(=O)c4cccc(Br)c4)ccc3o2)cc1)c1cccc(Br)c1
6.10
O=S(=O)(Nc1ccc(-c2nc3cc(NS(=O)(=O)c4ccccc4)ccc3o2)cc1)c1ccccc1
4.74
O=S(=O)(Nc1ccc(-c2nc3ccccc3o2)cc1)c1ccc(F)cc1
4.19
O=[N+]([O-])c1cc(S(=O)(=O)Nc2ccc3oc(-c4ccc(NS(=O)(=O)c5ccc(Cl)s5)cc4)nc3c2)ccc1Cl
5.34
COc1ccc(S(=O)(=O)Nc2ccc(-c3nc4ccccc4o3)cc2)cc1
4.21

## Input What value of measured pIC50 is listed for O=S(=O)(Nc1ccc(-c2nc3cc(NS(=O)(=O)c4cccc5nonc45)ccc3o2)cc1)c1ccc(Cl)s1 ?
## Output 5.07

## Input # lookup: pIC50 of Cc1ccccc1S(=O)(=O)Nc1ccc2oc(-c3ccccc3)nc2c1
## Output 4.23

## Input Endpoint output: pIC50 of O=c1ccc2cc(S(=O)(=O)Nc3ccc4oc(-c5ccc(NS(=O)(=O)c6ccc(Cl)s6)cc5)nc4c3)ccc2o1 . Value?
## Output 5.39

## Input What value of pIC50 has been reported for the following molecule? Nc1ccccc1S(=O)(=O)Nc1ccc(-c2nc3cc(NS(=O)(=O)c4ccccc4N)ccc3o2)cc1
## Output 4.77

## Input Which pIC50 is reported for this molecule? O=S(=O)(Nc1ccc(-c2nc3ccccc3o2)cc1)c1ccccc1F
## Output 4.07

## Input Please look up its pIC50: COc1ccc(S(=O)(=O)Nc2ccc(-c3nc4cc(NS(=O)(=O)c5ccc(Cl)s5)ccc4o3)cc2)cc1
## Output 4.96

---

Target: E. coli GroEL/ES (Escherichia coli)
Sequence (P0A6F5 whole entry, looked up): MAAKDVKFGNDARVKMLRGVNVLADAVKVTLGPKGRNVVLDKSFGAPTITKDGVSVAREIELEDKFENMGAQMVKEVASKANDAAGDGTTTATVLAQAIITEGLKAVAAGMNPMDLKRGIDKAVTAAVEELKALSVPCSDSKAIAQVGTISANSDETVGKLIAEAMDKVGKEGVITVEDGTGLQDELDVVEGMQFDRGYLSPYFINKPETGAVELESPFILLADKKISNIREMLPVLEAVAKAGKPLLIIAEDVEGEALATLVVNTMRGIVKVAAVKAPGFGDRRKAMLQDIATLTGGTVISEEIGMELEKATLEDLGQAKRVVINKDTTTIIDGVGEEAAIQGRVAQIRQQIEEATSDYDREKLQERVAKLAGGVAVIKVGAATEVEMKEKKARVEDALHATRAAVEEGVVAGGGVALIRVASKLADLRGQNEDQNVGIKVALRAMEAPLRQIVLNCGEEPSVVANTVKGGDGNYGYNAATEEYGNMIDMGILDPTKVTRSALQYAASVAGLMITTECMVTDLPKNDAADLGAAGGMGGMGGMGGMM
Test: Inhibition of Escherichia coli GroEL expressed in Escherichia coliDH5alpha/Escherichia coli GroES expressed in Escherichia coli BL21 (DE3) assessed as reduction in GroEL/GroES-mediated denatured pig heart mitochondrial MDH refolding by measuring MDH enzyme activity using sodium mesoxalate as substrate after 20 to 40 mins by spectrometric analysis
measureName: IC50 (µM)
Write the value in µM as a bare number.

Solved entries (count: 3):
O=S(=O)(Nc1ccc(-c2nc3ccccc3o2)cc1)c1ccc(Cl)c(C(F)(F)F)c1
23
O=S(=O)(Nc1ccc(-c2nc3cc(NS(=O)(=O)c4ccccc4O)ccc3o2)cc1)c1ccccc1O
7.7
O=S(=O)(Nc1ccc2oc(-c3ccccc3)nc2c1)c1ccc(C(F)(F)F)cc1
64

Note: attention shifts to another entry.
## Input # query: IC50 of entry O=S(=O)(Nc1ccc(-c2nc3ccccc3o2)cc1)c1ccc(C(F)(F)F)cc1
## Output 77

---

Experiment: Cytotoxicity against human THLE3 cells assessed as reduction in cell viability after 48 hrs by Alamar blue assay
Format: cell-based
Documented CC50 at 48 h across a set of compounds
Write the value in µM as a bare number.

Some compounds with recorded CC50 at 48 h:
Cc1ccccc1S(=O)(=O)Nc1ccc2oc(-c3ccccc3)nc2c1
35
Cc1cccc(S(=O)(=O)Nc2ccc(-c3nc4ccccc4o3)cc2)c1
81
O=S(=O)(Nc1ccc(-c2nc3ccccc3o2)cc1)c1ccc(Cl)c(C(F)(F)F)c1
81
C=Cc1ccc(S(=O)(=O)Nc2ccc(-c3nc4ccccc4o3)cc2)cc1
82

Proceed to the following item.
## Input Query (compound): O=S(=O)(Nc1ccc2oc(-c3ccccc3)nc2c1)c1cccc(Cl)c1 ; field requested: CC50 at 48 h
## Output 45

These entries and their values trace back to ChEMBL document CHEMBL4387722.
